Target: T1, biotinylated CRH (human and mouse, not fully specified; biotinylated, position not stated)
T1 construct: also called Biotin-CRH; biotin-labeled CRH
T1 peptide: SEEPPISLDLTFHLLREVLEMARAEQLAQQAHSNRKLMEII
Assay: competitive ELISA, coated 1st mAb; competitor PR302069
recordedMetric: % Inhibition (%)
Please respond with the number in % and leave the unit unwritten.

[ask] Can you look up the measured % Inhibition of PR302069 (antibody, human IgG1, kappa, V domains shown, Humanized variant of PR301777) VH: EMQLVESGGGLVKPGGSLRLSCAASGFTFSNYWMNWVRQAPGKGLEWVAEIRLKSNNYATHYAESVKGRFTISRDDSKSTVYLQMNSLKTEDTAVYYCTVGTLVYWGQGTLVTVSS VL: DIQLTQSPSSLSASVGDRVTITCRASQSVSTSTYNYMHWFQQKPGKAPKLLIKFASNLESGVPSRFSGSGSGTDFTLTISSLQPEDTATYYCQHSWEIPYTFGQGTKLEIKR for me?
[reply] 95

[ask] Do the same for PR302055 (antibody, human IgG1, kappa, V domains shown, Humanized variant of PR301777) VH: EMQLVESGGGLVQPGGSLKLSCAASGFTFSNYWMNWVRQASGKGLEWVAEIRLKSNNYATHYAESVKGRFTISRDDSKSTVYLQMNSLKTEDTAVYYCTVGTLVYWGQGTLVTVSS VL: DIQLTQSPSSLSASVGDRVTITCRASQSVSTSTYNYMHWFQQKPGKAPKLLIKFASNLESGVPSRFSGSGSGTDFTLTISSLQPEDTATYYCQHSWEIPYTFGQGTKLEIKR please
[reply] 95

[ask] Next: PR302050 (antibody, human IgG1, kappa, V domains shown, Humanized variant of PR301777) VH: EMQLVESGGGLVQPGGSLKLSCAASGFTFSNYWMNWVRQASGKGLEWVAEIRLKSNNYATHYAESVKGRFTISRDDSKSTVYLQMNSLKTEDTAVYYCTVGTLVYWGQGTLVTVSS VL: DIVLTQSPDSLAVSLGERATINCRASQSVSTSTYNYMHWFQQKPGQPPKLLIKFASNLESGVPDRFSGSGSGTDFTLTISSLQAEDTAVYYCQHSWEIPYTFGQGTKLEIKR
[reply] 94

[ask] Continue with PR302064 (antibody, human IgG1, kappa, V domains shown, Humanized variant of PR301777) VH: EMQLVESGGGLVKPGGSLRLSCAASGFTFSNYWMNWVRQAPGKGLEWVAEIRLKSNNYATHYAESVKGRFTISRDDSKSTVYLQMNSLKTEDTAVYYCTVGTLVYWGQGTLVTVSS VL: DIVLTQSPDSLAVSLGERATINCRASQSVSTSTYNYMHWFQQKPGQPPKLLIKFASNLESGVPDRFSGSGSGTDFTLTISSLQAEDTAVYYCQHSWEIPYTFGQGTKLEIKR
[reply] 95

Origin of measurements: patent US20260042834A1
